Substrate: BHET
Settings: 120 h
reported-property: plate clearing

unnamed (protein) MERGNHRAKWAIGFGLLLLGAAAHSQTNPYQKGPDPTSATLNATSGSFAVATSTVSSLAANGFGGGTIYYPTQTGTYAVLAISPGFTATQSSIAWLGRRISTHGFVVITIDTNSTLDQPPSRATQLMAALRHVTDLSSSTVRSRVDASRRGVAGHSMGGGGTLIAARDNPSLKAAVPLTAWSTTKIFSTVQVPTLVVGAESDSVAPVSSHSIPFYNSLSNSLDKAYAELNNASHFAPNSTNTPIGRYSVAWVKRFMDNDTRYTPFLCGTPHTSYATSTVFSDYRSTCPY    not clears the plate
unnamed (protein) MKTSNTRTARTIPGDTMSLGLTRLAKAAVLAAALLMSAAAQAQSNPYQKGPDPTAASLEATAGSFAVSTTSVSSLSASGFGGGTIYYPTAAGSYGAIAVSPGFTATQSSIAWLGPRLASHGFVVITIDTNSTLDQPDSRATQLMAALNYVVSLSQTSSSPIYGKVDANRLGVAGHSMGGGGTLIAARDNPTLKAAVPLAPWNTTKNFSSVTVPTLIIGCENDTVAPVSSHAIPFYNSIPSSTDKAYMELNGADHFCPQSSSNNPIIGKYMVAWMKRFVDNDTRYSPFLCGAPHQADLSSSAVSDYRSNCPY    not clears the plate
